system_tested: Glutamate [NMDA] receptor
assay_text: The compound was tested for its ability to block PCP N-methyl-D-aspartate glutamate receptor at the PCP (phencyclidine) binding site in postmortem human frontal cortex.
readout_name: pKi
Reminder that pKi is minus the log10 of a molar concentration.

1) CNC12CC3CC(CC(C3)C1)C2 : 4.66
2) NC12CC3CC(CC(C3)C1)C2 [AMANTADINE] : 4.98

// switching to the query compound
**Q:** Supply reported pKi belonging to this compound: CN1CC[C@@]23CCCC[C@@H]2[C@@H]1Cc1ccc(O)cc13 [DEXTRORPHAN]
**A:** 6.66

----------
system_tested: Glutamate [NMDA] receptor
assay_text: The compound was tested for its ability to block PCP N-methyl-D-aspartate glutamate receptor at the PCP (phencyclidine) binding site in postmortem human frontal cortex.
pKi: −log10 of the molar value.
Param threshold (5) applies to pKi; output Satisfied when value >= threshold, Not satisfied when value < threshold.

**Q:** Entry "CNC12CC3CC(C)(CC(C)(C3)C1)C2" : is its pKi no less than 5?
**A:** Satisfied

**Q:** Entry COc1ccc2c(c1)[C@]13CCCC[C@@H]1[C@H](C2)N(C)CC3 [DEXTROMETHORPHAN] : is its pKi no less than 5?
**A:** Satisfied

**Q:** Entry OC(CCN1CCCC1)(c1ccccc1)C1CCCCC1 (racemic) [PROCYCLIDINE] : is its pKi no less than 5?
**A:** Satisfied
